The origin of these recorded values is paper PMC8948676.

- tested.system: full-length human P2X5 receptor (hP2X5^FL) (Homo sapiens, UniProt Q93086, F216L/F232L)
- Sequence (Q93086 whole entry F216L/F232L): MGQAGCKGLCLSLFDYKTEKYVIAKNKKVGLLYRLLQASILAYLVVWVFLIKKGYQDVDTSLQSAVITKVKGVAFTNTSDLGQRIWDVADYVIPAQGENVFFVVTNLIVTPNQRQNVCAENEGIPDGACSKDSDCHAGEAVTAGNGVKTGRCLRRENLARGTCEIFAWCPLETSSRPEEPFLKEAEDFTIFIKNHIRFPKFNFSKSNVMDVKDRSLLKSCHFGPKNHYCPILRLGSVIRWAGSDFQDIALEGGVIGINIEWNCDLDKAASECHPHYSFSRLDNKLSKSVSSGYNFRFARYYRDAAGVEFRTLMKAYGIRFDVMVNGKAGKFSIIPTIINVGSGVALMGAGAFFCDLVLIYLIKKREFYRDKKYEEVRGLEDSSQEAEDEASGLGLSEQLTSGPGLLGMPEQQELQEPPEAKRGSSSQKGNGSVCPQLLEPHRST
- assay.explanation: cell-based
result.type: EC50

Which EC50 reading was recorded for the compound Nc1ncnc2c1ncn2[C@@H]1O[C@H](COP(=O)(O)OP(=O)(O)OP(=O)(O)O)[C@@H](O)[C@H]1O ?
~39 µM
